Data provenance is patent US10604514B2.

Test system: SW480 colon carcinoma cells
Test: Cell viability assay (CellTiter-Glo) in SW480 cells;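 note: SW480 cells stably carrying an Sp5-luciferase TCF/LEF reporter, luminescent ATP signal as viability measure, DMSO-treated cells as control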
Assay type: cell-based, human
Details: Homo sapiens, SW480; read-out: percent inhibition at 10 μM
Classification field: 1 = inhibition at 10 µM at or over 30%; 0 = inhibition at 10 µM under 30%.

{"columns": ["smiles_structure", "qualitative_label"],
 "data": [
  ["CC(C)N1CCN(C(=O)Nc2cc3cc(-c4cnn(C)c4)ccc3cn2)CC1", 0],
  ["CC(C)C[N+]1(CC(C)C)CCC(C(=O)Nc2cc3cc(-c4cnn(C)c4)ccc3cn2)CC1", 0],
  ["Cc1nnc(-c2ccc3cnc(NC(=O)CN4CCOCC4)cc3c2)n1C", 1],
  ["Cc1nnc(-c2cc(F)c3cnc(NC(=O)N(C)C4CCN(C)CC4)cc3c2)s1", 0],
  ["[2H]c1c(NC(=O)CN2CCOCC2)ncc2ccc(-c3cnc(C)o3)cc12", 1],
  ["Cc1nnc(-c2ccc3cnc(NC(=O)C4(F)CCNCC4)cc3c2)s1", 1],
  ["Cc1nnc(-c2ccc3cnc(NC(=O)C4CCN(CC(C)(F)F)CC4)cc3c2)s1", 1],
  ["C[C@H]1CN(C)CCN1C(=O)Nc1cc2cc(-c3cnn(C)c3)ccc2cn1", 0]
]}

* * *

Target: GSK3β kinase (Homo sapiens (Human))
Assay: GSK3β kinase assay (Ser/Thr 09 peptide Z-lyte, FRET)
Assay type: biochemical
Settings: method text calls the value IC50
pEC50: −log10 of the molar value.
Decision: pEC50 compared against 7; not below it gives 1.0, below it gives 0.0.

{"columns": ["smiles_structure", "qualitative_label"],
 "data": [
  ["Cc1ncc(-c2cc(F)c3cnc(NC(=O)[C@H]4CC[C@H](N(C)C)CC4)cc3c2)o1", 0.0],
  ["Cc1ncc(-c2ccc3cnc(NC(=O)N4CC[C@H](N)[C@@H](F)C4)cc3c2)o1", 0.0],
  ["Cn1cc(-c2cc(F)c3cnc(NC(=O)[C@H]4CC[C@H](N(C)C)CC4)cc3c2)nn1", 1.0],
  ["[2H]c1c([2H])c([2H])c(C(=O)Nc2cc3cc(-c4cncn4C)ccc3cn2)c(F)c1[2H]", 0.0],
  ["Cn1cc(-c2ccc3cnc(NC(=O)[C@H]4CC[C@H](N5CCCC5)CC4)cc3c2)nn1", 1.0],
  ["[2H]c1c([2H])c(C(=O)Nc2cc3cc(-c4cncn4C)ccc3cn2)c([2H])c([2H])c1OC", 0.0],
  ["Cc1nnc(-c2ccc3cnc(NC(=O)N4C5CCC4CN(C)C5)cc3c2)s1", 0.0],
  ["Cc1nnc(-c2ccc3cnc(NC(=O)C4CCN(CC(C)(F)F)CC4)cc3c2)s1", 1.0],
  ["[2H]C([2H])([2H])c1ccc(C(=O)Nc2cc3cc(-c4cnc(C)n4C)ccc3cn2)cc1", 0.0],
  ["[2H]c1c(NC(=O)C2CCN(C)CC2)ncc2ccc(-c3cnn(C)c3)cc12", 1.0],
  ["Cc1nc(-c2ccc3cnc(NC(=O)[C@H]4CC[C@H](N5CCN(C)CC5)CC4)cc3c2)co1", 0.0],
  ["[2H]c1c([2H])c([2H])c(C(=O)Nc2cc3cc(-c4cnc(C)n4C)ccc3cn2)c(F)c1[2H]", 0.0]
]}

* * *

Target: DYRK1A kinase (Homo sapiens (Human))
Assay: DYRK1A kinase assay (Ser/Thr 18 peptide Z-lyte, FRET)

{"columns": ["molecule", "measured_on", "scale_unit", "EC50"],
 "data": [
  ["[2H]C1([2H])OC([2H])([2H])C([2H])([2H])N(CC(=O)Nc2cc3cc(-c4cnc(C)o4)ccc3cn2)C1([2H])[2H]", "DYRK1A kinase (Homo sapiens (Human))", "µM", 0.029],
  ["[2H]/C(C(=O)Nc1cc2cc(-c3cnc(C)n3C)ccc2cn1)=C(/[2H])c1c([2H])c([2H])c([2H])c([2H])c1[2H]", "DYRK1A kinase (Homo sapiens (Human))", "µM", 0.005],
  ["[2H]c1c(NC(=O)C2CCN(C)CC2)ncc2ccc(-c3cnc(C)o3)cc12", "DYRK1A kinase (Homo sapiens (Human))", "µM", 0.006],
  ["[2H]c1c([2H])c([2H])c(C(=O)Nc2cc3cc(-c4cnc(C)n4C)ccc3cn2)c(Cl)c1[2H]", "DYRK1A kinase (Homo sapiens (Human))", "µM", 0.027],
  ["[2H]c1c([2H])c(C(=O)Nc2cc3cc(-c4cnc(C)n4C)ccc3cn2)c([2H])c([2H])c1C", "DYRK1A kinase (Homo sapiens (Human))", "µM", 0.011],
  ["Cc1ncc(-c2ccc3cnc(NC(=O)C4CCC(N5CC5CF)CC4)cc3c2)o1 (stereo not shown)", "DYRK1A kinase (Homo sapiens (Human))", "µM", 0.005],
  ["[2H]c1c([2H])c([2H])c(C(=O)Nc2cc3cc(-c4cnc(C)n4C)ccc3cn2)c(F)c1[2H]", "DYRK1A kinase (Homo sapiens (Human))", "µM", 0.019]
]}

* * *

Target: DYRK1A kinase (Homo sapiens (Human))
Assay: DYRK1A kinase assay (Ser/Thr 18 peptide Z-lyte, FRET)
Conditions: DYRK1A kinase; method text calls the value IC50
pEC50: −log10 of the molar value.
Reported pEC50 values follow for various compounds
value_kind: pEC50

{"columns": ["smiles_structure", "value_kind", "experimental_value"],
 "data": [
  ["Cc1ncc(-c2ccc3cnc(NC(=O)[C@H]4CC[C@H](CN5CCN(C)CC5)CC4)cc3c2)o1", "pEC50", 8.70],
  ["Cn1cc(-c2cc(F)c3cnc(NC(=O)[C@H]4CC[C@H](N(C)C)CC4)cc3c2)cn1", "pEC50", 8.40],
  ["Cn1cc(-c2ccc3cnc(NC(=O)N4CCOCC4)cc3c2)cn1", "pEC50", 8.10],
  ["Cc1nnc(-c2ccc3cnc(NC(=O)C4CCN(CC(F)F)CC4)cc3c2)s1", "pEC50", 8.22],
  ["Cc1ncc(-c2ccc3cnc(NC(=O)[C@H]4CC[C@H](N(C)C5COC5)CC4)cc3c2)o1", "pEC50", 8.15],
  ["Cc1ncc(-c2ccc3cnc(NC(=O)[C@H]4CC[C@H](CN5CCOCC5)CC4)cc3c2)o1", "pEC50", 8.52],
  ["Cc1ncc(-c2ccc3cnc(NC(=O)C4CCN(CC(C)(F)F)CC4)cc3c2)o1", "pEC50", 8.30],
  ["Cn1cc(-c2cc(F)c3cnc(NC(=O)[C@H]4CC[C@H](N5CCOCC5)CC4)cc3c2)cn1", "pEC50", 8.40],
  ["COC1CCN(CC(=O)Nc2cc3cc(-c4cnc(C)o4)ccc3cn2)CC1", "pEC50", 7.70],
  ["Cn1cc(-c2cc(F)c3cnc(NC(=O)[C@H]4CC[C@H](N(C)C)CC4)cc3c2)nn1", "pEC50", 8.40],
  ["COCCN[C@H]1CC[C@H](C(=O)Nc2cc3cc(-c4cnn(C)c4)ccc3cn2)CC1", "pEC50", 8.22],
  ["Cc1nnc(-c2ccc3cnc(NC(=O)N4[C@@H]5CC[C@H]4C[C@@H](NCCC(F)(F)F)C5)cc3c2)s1", "pEC50", 8.30],
  ["Cc1ncc(-c2ccc3cnc(NC(=O)N4CCC(N5CCOCC5)CC4)cc3c2)o1", "pEC50", 7.70],
  ["Cc1nnc(-c2ccc3cnc(NC(=O)N4CC[C@H](NC(C)C)[C@@H](F)C4)cc3c2)s1", "pEC50", 7.59],
  ["Cc1nnc(-c2ccc3cnc(NC(=O)N4CCC(N5CCOCC5)CC4)cc3c2)s1", "pEC50", 7.80],
  ["Cc1ncc(-c2cc(F)c3cnc(NC(=O)[C@H]4CC[C@H](C(=O)N5CCN(C)CC5)CC4)cc3c2)o1", "pEC50", 7.66]
]}

* * *

Molecular target: GSK3β kinase (Homo sapiens (Human), UniProt P49841)
Sequence (P49841 whole entry): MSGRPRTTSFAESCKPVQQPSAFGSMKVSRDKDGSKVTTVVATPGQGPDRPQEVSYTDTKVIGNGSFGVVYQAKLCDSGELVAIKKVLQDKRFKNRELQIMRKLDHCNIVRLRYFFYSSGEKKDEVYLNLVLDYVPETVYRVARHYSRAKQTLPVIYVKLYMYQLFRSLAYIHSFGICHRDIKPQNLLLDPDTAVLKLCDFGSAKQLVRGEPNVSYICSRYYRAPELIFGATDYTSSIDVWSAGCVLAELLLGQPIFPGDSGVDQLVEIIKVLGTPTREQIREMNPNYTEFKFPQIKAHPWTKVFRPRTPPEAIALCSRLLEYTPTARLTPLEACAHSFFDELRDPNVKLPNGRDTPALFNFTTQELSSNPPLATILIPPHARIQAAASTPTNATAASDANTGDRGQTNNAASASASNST
Test: GSK3β kinase assay (Ser/Thr 09 peptide Z-lyte, FRET);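 note: Coumarin/fluorescein emission ratio converted to percent phosphorylation against unphosphorylated (0%) and phosphorylated (100%) controls, 1 h compound incubation at room temperature, 11-point threefold dilutions from 10 µM, run in duplicate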
Format: biochemical
Conditions: method text calls the value IC50
Listed below: EC50 values for each entry.

{"columns": ["smiles_structure", "EC50"],
 "data": [
  ["[2H]C([2H])([2H])C(N[C@H]1CCN(C(=O)Nc2cc3cc(-c4nnc(C)s4)ccc3cn2)C[C@@H]1F)C([2H])([2H])[2H]", "33 nM"],
  ["Cc1nnc(-c2ccc3cnc(NC(=O)N[C@H]4CCN(C)C[C@@H]4F)cc3c2)s1", "14 nM"],
  ["[2H]c1c([2H])c(C([2H])([2H])[2H])c([2H])c([2H])c1C(=O)Nc1cc2cc(-c3cncn3C)ccc2cn1", "1740 nM"],
  ["CC(C)CN1CCC(C(=O)Nc2cc3cc(-c4ccn(C)n4)ccc3cn2)CC1", "1900 nM"],
  ["Cn1cnnc1-c1ccc2cnc(NC(=O)CN3CCOCC3)cc2c1", "48 nM"],
  ["Cc1cn2c(n1)CN(C(=O)Nc1cc3cc(-c4cnc(C)o4)ccc3cn1)CC2", "15 nM"],
  ["Cc1ncc(-c2cc(F)c3cnc(NC(=O)N(C)C4CCN(C)CC4)cc3c2)o1", "6710 nM"],
  ["Cn1cc(-c2cc(F)c3cnc(NC(=O)[C@H]4CC[C@@H](N(C)C)CC4)cc3c2)cn1", "5420 nM"]
]}
